# Method: Cytotoxicity in uninfected MT-4 cells (MTT assay)
# Assay type: cell-based
# Reported conditions: human; concentration that reduces normal uninfected MT-4 cell viability by 50%
Measurement name: CC50 at 7 d

Entry under test: `O=C1Nc2ccc(Cl)cc2[C@@](C#CC2CC2)(C(F)(F)F)O1` . Its CC50 at 7 d was > 6.34 µM

====

Reported melting point is given for each of the following molecules.

Some solved entries appear below for comparison.
Chemical string: Cc1cc(-c2ccc(C#N)cc2F)ccc1Oc1nc(Nc2ccc(C#N)cc2)nc2ccsc12
melting point: 268.5 to 271 °C

Chemical string: N#Cc1ccc(Nc2nc(Oc3ccc(-c4ccc(C#N)c(F)c4)cc3F)c3sccc3n2)cc1
melting point: > 300 °C

Chemical string: Cc1cc(-c2ccc(C#N)c(F)c2)ccc1Oc1nc(Nc2ccc(C#N)cc2)nc2ccsc12
melting point: 299.3 to 300.2 °C

Entry under test: `Cc1cc(-c2ccc(Oc3nc(Nc4ccc(C#N)cc4)nc4ccsc34)cc2C)ccc1C#N` . Its melting point was 264.9 to 266.2 °C

Entry under test: `N#Cc1ccc(Nc2nc(Oc3ccc(-c4ccc(C#N)cc4F)cc3F)c3sccc3n2)cc1` . Its melting point was 295.3 to 297 °C

Entry under test: `Cc1cc(-c2ccc(Oc3nc(Nc4ccc(C#N)cc4)nc4ccsc34)cc2)ccc1C#N` . Its melting point was 256.5 to 257.9 °C

Entry under test: `N#Cc1ccc(Nc2nc(Oc3ccc(-c4ccc(C#N)cc4Cl)cc3)c3sccc3n2)cc1` . Its melting point was > 300 °C

Entry under test: `Cc1cc(-c2ccc(C#N)cc2C)ccc1Oc1nc(Nc2ccc(C#N)cc2)nc2ccsc12` . Its melting point was 262.4 to 263.7 °C

Entry under test: `N#Cc1ccc(Nc2nc(Oc3ccc(-c4ccc(C#N)cc4F)cc3)c3sccc3n2)cc1` . Its melting point was 272.5 to 273.6 °C

Entry under test: `N#Cc1ccc(Nc2nc(Oc3ccc(-c4ccc(C#N)c(F)c4)cc3)c3sccc3n2)cc1` . Its melting point was 258.8 to 260.3 °C

Entry under test: `Cc1cc(C#N)ccc1-c1ccc(Oc2nc(Nc3ccc(C#N)cc3)nc3ccsc23)c(F)c1` . Its melting point was 275.2 to 276.8 °C
